The reported measurements were obtained from patent US6342508B1.

measured_target: MMP 13 (Homo sapiens)
assay_overview: MMP 13 inhibition (standard/manual test)
Assay type: biochemical
experimental_setup: read-out: MMP 13 IC 50
Decide using IC50 alone. Strictly below 10 nM: TRUE. Equal to or above 10 nM: FALSE.

Examples with answers:
>>> class_label("CCN(CC)CCOc1ccc(CC(C)(C(=O)NO)S(=O)(=O)c2ccc(OC)cc2)cc1 (centres unmarked) [Example 21]")
"FALSE"
>>> class_label("CCOc1ccc(S(=O)(=O)C(C)(Cc2ccc(OCCN(CC)CC)cc2)C(=O)NO)cc1 (centres unmarked) [Example 25]")
"TRUE"
>>> class_label("CC(Cc1ccc(OCCN2CCCCC2)cc1)(C(=O)NO)S(=O)(=O)c1ccc(Br)cc1 (centres unmarked) [Example 50]")
"FALSE"
>>> class_label("COc1ccc(S(=O)(=O)C(C)(CC=C(C)C)C(=O)NO)cc1 (centres unmarked) [Example 13]")
"FALSE"

In the following, a different molecule is considered.
Identify whether the molecule COc1ccc(S(=O)(=O)C2(C(=O)NO)CCN(CC=C(C)C)CC2)cc1 [Example 89] records IC50 below 10 nM.
TRUE
